testSystem: HCV NS3/4A protease complex (Hepatitis C virus genotype 1a, UniProt P27958, C1454S/C1711G)
Sequence (P27958 1027-1711, stated change not applied): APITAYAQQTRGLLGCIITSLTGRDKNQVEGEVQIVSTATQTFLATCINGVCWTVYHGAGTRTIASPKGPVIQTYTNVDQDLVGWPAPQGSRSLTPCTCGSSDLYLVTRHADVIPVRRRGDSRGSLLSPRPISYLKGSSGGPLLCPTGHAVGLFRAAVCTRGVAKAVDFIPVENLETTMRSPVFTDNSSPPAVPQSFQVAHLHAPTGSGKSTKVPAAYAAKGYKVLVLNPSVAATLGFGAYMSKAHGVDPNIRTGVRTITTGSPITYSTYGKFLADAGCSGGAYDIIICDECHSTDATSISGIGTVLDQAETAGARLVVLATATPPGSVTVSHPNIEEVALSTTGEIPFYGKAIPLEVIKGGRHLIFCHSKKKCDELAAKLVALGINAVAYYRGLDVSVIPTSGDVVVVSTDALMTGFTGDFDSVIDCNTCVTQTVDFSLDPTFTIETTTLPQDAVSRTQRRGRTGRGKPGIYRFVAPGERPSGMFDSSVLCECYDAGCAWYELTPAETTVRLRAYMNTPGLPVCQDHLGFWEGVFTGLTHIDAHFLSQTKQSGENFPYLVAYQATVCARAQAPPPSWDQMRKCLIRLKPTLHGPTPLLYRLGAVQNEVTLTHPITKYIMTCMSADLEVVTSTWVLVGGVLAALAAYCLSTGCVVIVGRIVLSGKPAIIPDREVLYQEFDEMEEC
Sequence (P27958 1027-1711, stated change not applied): as above
methodDescription: Recombinant HCV NS3/4A protease complex FRET peptide assay (strain not stated)
Type: biochemical
runParameters: IC50, NS3/4A protease enzyme assay, strain not stated; activity ranges
measurementKind: IC50

Answered cases to consult:
Reported IC50, compound C=CC1C[C@]1(NC(=O)[C@@H]1C[C@@H](Oc2cc(-c3ccccc3)nc3cc(OC)ccc23)CN1C(=O)C(NC(=O)OC(C)(C)C)C(C)(C)C)C(=O)NS(=O)(=O)c1ccccc1I (some centres unmarked) [Compound 56] : ____
< 50 nM

Reported IC50, compound C=CC1C[C@]1(NC(=O)[C@@H]1C[C@@H](Oc2cc(-c3ccccc3)nc3cc(OC)ccc23)CN1C(=O)[C@@H](NC(=O)OC(C)(C)C)C(C)(C)C)C(=O)NS(=O)(=O)c1ccccc1C#N (some centres unmarked) [Compound 50] : ____
< 500 nM

New cases:
Reported IC50, compound C=C[C@@H]1C[C@]1(NC(=O)C1CC(Oc2cc(-c3ccccc3)nc3cc(OC)ccc23)CN1C(=O)[C@@H](NC(=O)OCCF)C(C)(C)C)C(=O)NS(=O)(=O)C1CC1 (some centres unmarked) [Compound 122] : ____
< 50 nM

Reported IC50, compound C=CC1C[C@]1(NC(=O)[C@@H]1C[C@@H](Oc2cc(-c3ccccc3)nc3cc(OC)ccc23)CN1C(=O)[C@@H](NC(=O)OC(C)(C)C)C(C)(C)C)C(=O)NS(=O)(=O)C1CCC1 (stereo in doubt) [Compound 11] : ____
< 50 nM

Reported IC50, compound C=C[C@@H]1C[C@]1(NC(=O)C1CC(Oc2cc(-c3ccccc3)nc3cc(OC)ccc23)CN1C(=O)[C@@H](NS(=O)(=O)C1CC1)C(C)(C)C)C(=O)NS(=O)(=O)C1CC1 (some centres unmarked) [Compound 118] : ____
< 50 nM
